Listed next: entries and their corresponding EC50.
Target: T1, human CD73 on the cell surface (human, UniProt P21589 27-549)
T1 construct: also called CHOK1-huCD73-3F4 cells; human CD73-expressing cells
T1 sequence: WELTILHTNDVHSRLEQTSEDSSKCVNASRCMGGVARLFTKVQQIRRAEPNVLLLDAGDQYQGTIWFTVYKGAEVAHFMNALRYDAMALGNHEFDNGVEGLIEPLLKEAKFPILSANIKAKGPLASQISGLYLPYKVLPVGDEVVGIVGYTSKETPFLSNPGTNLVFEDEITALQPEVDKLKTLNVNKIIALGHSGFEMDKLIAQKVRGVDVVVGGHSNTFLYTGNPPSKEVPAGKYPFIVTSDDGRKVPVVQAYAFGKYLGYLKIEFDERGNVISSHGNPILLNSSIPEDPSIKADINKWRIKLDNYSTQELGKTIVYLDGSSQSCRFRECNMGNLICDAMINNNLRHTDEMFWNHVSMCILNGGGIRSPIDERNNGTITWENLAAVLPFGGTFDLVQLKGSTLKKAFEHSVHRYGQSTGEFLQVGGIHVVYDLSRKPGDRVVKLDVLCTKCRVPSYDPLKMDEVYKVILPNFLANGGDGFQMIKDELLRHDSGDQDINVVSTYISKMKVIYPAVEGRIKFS
Experiment: flow cytometry on CHOK1-huCD73-3F4 cells, PE anti-human Fc
Field: numeric (µg/mL). Do not append units.

| binder | result |
| --- | --- |
| 900698 (antibody, V domains shown, Constant regions are not restated) VH: QVQLVESGGGLVKPGGSLRLSCAASGFTFSKYAMSWIRQAPGKGLEWVAEISSGGGYINYADSVKGRFTISRDNAKNSLYLQMNSLRAEDTAVYYCARAIYYYGSSYNYYAMDYWGQGTTVTVSS VL: DIQMTQSPSSLSASVGDRVTITCRASQDVGTAEAWYQQKPGKAPKLLIYWASTRHTGVPSRFSGSGSGTDFTLTISSLQPEDFATYYCQQYSSYPLTFGQGTKLEIK | 0.688 |
| 900695 (antibody, V domains shown, Constant regions are not restated) VH: QVQLVESGGGLVKPGGSLRLSCAASGFTFSKYAMSWVRQAPGKGLEWVAEISSGGGYINYADSVTGRFTISRDNAKNSLYLQMNSLRAEDTAVYYCARAIYYYGSSYNYYAMDYWGQGTTVTVSS VL: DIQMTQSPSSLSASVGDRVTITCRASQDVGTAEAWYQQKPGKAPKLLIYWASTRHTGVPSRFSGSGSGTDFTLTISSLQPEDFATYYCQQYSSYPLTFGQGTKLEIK | 0.594 |

Exam item: Quick one: EC50 for 900694 (antibody, V domains shown, Constant regions are not restated; it was detected with anti-human Fc and captured on protein A) VH: EVQLVESGGGLVKPGGSLRLSCAASGFTFSKYAMSWVRQAPGKGLEWVAEISSGGGYINYPDTVTGRFTISRDNAKNSLYLQMNSLRAEDTAVYYCARAIYYYGSSYNYYAMDYWGQGTTVTVSS VL: DIQMTQSPSSLSASVGDRVTITCRASQDVGTAEAWYQQKPGKAPKLLIYWASTRHTGVPDRFSGSGSGTDFTLTISSLQPEDFATYYCQQYSSYPLTFGQGTKLEIK ?
Marked response: 0.646

Exam item: Next record, please: 900581 (antibody, human IgG1, V domains shown) VH: EVQLVESGGGLVKPGGSLKLSCAASGFTFSKYAMSWVRQSPEKRLEWVAEISSGGGYINYPDTVTGRFTISRDNAKNTLYLEMSSLRSGDTAMYYCARAIYYYGSSYNYYAMDYWGQGTSVTVSS VL: DIVMTQSHKFMSTSVGDRVSITCKASQDVGTAEAWYQQKPGQSPKLLIYWASTRHTGVPDRFTGSGSGTDFTLTIGNVQSEDLADYFCQQYSSYPLTFGGGTKLEIK
Marked response: 0.347

Exam item: Next record, please: 900697 (antibody, V domains shown, Constant regions are not restated) VH: QVQLVESGGGLVKPGGSLRLSCAASGFTFSKYAMSWVRQAPGKGLEWVAEISSGGGYINYADSVTGRFTISRDNAKNSLYLQMNSLRAEDTAVYYCARAIYYYGSSYNYYAMDYWGQGTTVTVSS VL: DIQMTQSPSSLSASVGDRVTITCRASQDVGTAEAWYQQKPGKAPKLLIYWASTLQSGVPSRFSGSGSGTDFTLTISSLQPEDFATYYCQQYSSYPLTFGQGTKLEIK
Marked response: 0.518

Exam item: Next record, please: 900696 (antibody, V domains shown, Constant regions are not restated) VH: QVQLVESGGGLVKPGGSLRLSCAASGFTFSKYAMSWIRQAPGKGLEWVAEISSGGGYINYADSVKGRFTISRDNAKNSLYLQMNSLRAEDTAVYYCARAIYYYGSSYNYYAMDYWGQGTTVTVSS VL: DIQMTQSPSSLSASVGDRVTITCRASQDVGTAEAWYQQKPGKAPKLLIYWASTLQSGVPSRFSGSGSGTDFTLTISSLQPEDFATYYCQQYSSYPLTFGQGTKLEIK
Marked response: 0.684

Values compiled from patent US20240026024A1.
